Every entry's value here was drawn from patent US20230151025A1.

Consider the following molecules and their measured herbicidal activity ALOMY readings.
system: Alopecurus myosuroides (ALOMY); experiment: Herbicidal post-emergence action (B), 1280 g/ha; type: in vivo; details: rated visually after about 3 weeks vs untreated controls
The reply should consist of the numeric value with the unit placed after it.

Guide cases for herbicidal activity ALOMY, answers given:
Molecule: CCOC(=O)C(C#N)c1nc2nc(-c3ccccc3F)c(Br)cc2s1 (stereo not shown)
Reported value: 100%
//
Molecule: Fc1ccccc1-c1nc2nc(Cl)sc2cc1Br
Reported value: 100%
//
Molecule: Cc1ccsc1-c1nc2ncsc2cc1Cl
Reported value: 100%
//
Molecule: Fc1ccccc1-c1nc2ncsc2cc1Cl
Reported value: 100%
//
Molecule: Cc1cc2scnc2nc1-c1ccccc1
Reported value: 100%

Prompt line: Can you look up the measured herbicidal activity ALOMY of CCc1cc2scnc2nc1-c1ccc(F)cc1F for me?
Response line: 90%

Prompt line: Same question for COc1ccccc1-c1nc2ncsc2cc1C please.
Response line: 100%

Prompt line: Same question for Cc1cc2scnc2nc1-c1ccccc1Cl please.
Response line: 100%

Prompt line: Same question for Clc1cc2scnc2nc1-c1ccsc1 please.
Response line: 100%

Prompt line: Same question for Cc1cc2scnc2nc1-c1ccsc1C please.
Response line: 100%

Prompt line: Same question for Cc1cccc(F)c1-c1nc2ncsc2cc1Cl please.
Response line: 100%

---

system: Setaria viridis (SETVI); experiment: Herbicidal post-emergence action (B), 1280 g/ha; type: in vivo; conditions: rated visually after about 3 weeks vs untreated controls
Readout label: herbicidal activity SETVI (%)
Value expressed in %; do not type the unit.

Compound: Cc1cc2scnc2nc1-c1ccccc1Cl [Example I-045]
Units text: %
herbicidal activity SETVI: 100
--
Compound: Clc1cc2scnc2nc1-c1sccc1Cl [Example I-189]
Units text: %
herbicidal activity SETVI: 90

Prompt line: Can you look up the measured herbicidal activity SETVI of Cc1cc2scnc2nc1-c1sccc1Cl [Example I-137] for me?
Response line: 100

Prompt line: Same question for Fc1cc(F)c(-c2nc3ncsc3cc2Cl)c(F)c1 [Example I-035] please.
Response line: 90

Prompt line: Same question for COc1ccccc1-c1nc2ncsc2cc1C [Example I-124] please.
Response line: 90

Prompt line: Same question for CCc1cc2scnc2nc1-c1ccccc1 [Example I-051] please.
Response line: 100

Prompt line: Same question for CCc1cc2scnc2nc1-c1ccccc1F [Example I-023] please.
Response line: 100

Prompt line: Same question for Fc1ccccc1-c1ccc2scnc2n1 [Example I-036] please.
Response line: 100

Prompt line: Same question for Cc1ccsc1-c1nc2ncsc2cc1Br [Example I-132] please.
Response line: 90

Prompt line: Same question for CCCc1cc2scnc2nc1-c1ccccc1F [Example I-185] please.
Response line: 90

Prompt line: Same question for c1ccc(-c2ccc3scnc3n2)cc1 [Example I-010] please.
Response line: 100

Prompt line: Same question for Cc1cc2scnc2nc1-c1cccc(F)c1 [Example I-003] please.
Response line: 90

Prompt line: Same question for Fc1ccccc1-c1nc2ncsc2cc1C1CC1 [Example I-102] please.
Response line: 100

Prompt line: Same question for Fc1ccccc1-c1nc2ncsc2cc1Cl [Example I-017] please.
Response line: 100

Prompt line: Same question for Cc1cc2scnc2nc1-c1sccc1C [Example I-143] please.
Response line: 90

Prompt line: Same question for Cc1cc2scnc2nc1-c1ccc(F)cc1F [Example I-122] please.
Response line: 90

---

Consider the following molecules and their measured herbicidal activity AMARE readings.
test system: Amaranthus retroflexus (AMARE); test: Herbicidal post-emergence action (B), 1280 g/ha; format: in vivo; conditions: rated visually after about 3 weeks vs untreated controls
Value expressed in %; do not type the unit.

Guide cases for herbicidal activity AMARE, answers given:
Smiles input: Cc1sccc1-c1nc2ncsc2cc1Br
Units text: %
Reported value: 90
--
Smiles input: CCc1cc2scnc2nc1-c1ccccc1C
Units text: %
Reported value: 100
--
Smiles input: Cc1cc2scnc2nc1-c1sccc1Cl
Units text: %
Reported value: 100

Prompt line: Can you look up the measured herbicidal activity AMARE of NC(=O)c1nc2nc(-c3ccccc3F)c(Br)cc2s1 for me?
Response line: 90

Prompt line: Same question for C=Cc1cc2scnc2nc1-c1ccccc1F please.
Response line: 100

---

system: Alopecurus myosuroides (ALOMY); experiment: Herbicidal post-emergence action (B), 1280 g/ha; assay type: in vivo; settings: rated visually after about 3 weeks vs untreated controls
Readout label: herbicidal activity ALOMY (%)
Value expressed in %; do not type the unit.

Compound: Cc1cc2scnc2nc1-c1sc(Br)cc1C
Reported value: 90
//
Compound: Cc1cc2scnc2nc1-c1ccc(F)cc1F
Reported value: 100
//
Compound: Cc1cc2scnc2nc1-c1sccc1Cl
Reported value: 100

Prompt line: Can you look up the measured herbicidal activity ALOMY of Fc1cccc(-c2nc3ncsc3cc2Cl)c1F for me?
Response line: 90

Prompt line: Same question for CCc1cc2sc(OC)nc2nc1-c1ccccc1C please.
Response line: 100

---

tested on: Setaria viridis (SETVI); test: Herbicidal post-emergence action (B), 1280 g/ha; format: in vivo; conditions: rated visually after about 3 weeks vs untreated controls
Readout label: herbicidal activity SETVI (%)
Value expressed in %; do not type the unit.

Compound: Cc1cc2scnc2nc1-c1ccccc1 [Example I-041]
Units text: %
herbicidal activity SETVI: 100
--
Compound: C=Cc1cc2scnc2nc1-c1ccccc1F [Example I-072]
Units text: %
herbicidal activity SETVI: 90
--
Compound: Fc1ccccc1-c1nc2ncsc2cc1I [Example I-188]
Units text: %
herbicidal activity SETVI: 90
--
Compound: Cc1cccc(F)c1-c1nc2ncsc2cc1Br [Example I-088]
Units text: %
herbicidal activity SETVI: 90

Now, please, on to the next compound.
Prompt line: Request body: readout herbicidal activity SETVI, system Setaria viridis (SETVI), query CCc1cc2scnc2nc1-c1cccc(F)c1 [Example I-029] . Return the value.
Response line: 100

---

system: Alopecurus myosuroides (ALOMY); test: Herbicidal post-emergence action (B), 1280 g/ha; type: in vivo; conditions: rated visually after about 3 weeks vs untreated controls
Readout label: herbicidal activity ALOMY (%)
Value expressed in %; do not type the unit.

Molecule: Cc1cc2scnc2nc1-c1sccc1C [Example I-143]
Units text: %
herbicidal activity ALOMY: 100
--
Molecule: c1ccc(-c2ccc3scnc3n2)cc1 [Example I-010]
Units text: %
herbicidal activity ALOMY: 100
--
Molecule: N#CCc1nc2nc(-c3ccccc3F)c(Br)cc2s1 [Example I-071]
Units text: %
herbicidal activity ALOMY: 90
--
Molecule: Cc1sccc1-c1nc2ncsc2cc1Br [Example I-135]
Units text: %
herbicidal activity ALOMY: 90
--
Molecule: Cc1cc2scnc2nc1C12CCCCC1O2 (stereo not drawn) [Example I-151]
Units text: %
herbicidal activity ALOMY: 100

Now, please, on to the next molecule.
Prompt line: Can you look up the measured herbicidal activity ALOMY of Fc1cc(F)c(-c2nc3ncsc3cc2Cl)c(F)c1 [Example I-035] for me?
Response line: 90
